Test system: methylphenidate-induced behavior
Assay: Antagonism of methylphenidate-induced behavior in rats (chewing inhibition, normalization)
Assay type: in vivo, rat
Details: Rattus norvegicus, ip, read-out: Normalization ED50
Protocol: The compounds were tested in vivo (Table II) to measure their ability to antagonize methylphenidate-induced behavior in rats. […] Colpaert J. Pharmacol. Exp. Ther. 267, 181 (1993). This test characterizes the antipsychotic activity in a more in-depth manner than apomorphine effect antagonism, the test conventionally used.
Counter-ions that a name gives are not always drawn.
Each entry below carries its reported ED50.

### Prompt Reported ED50 for Cc1nc2n(c(=O)c1CCN1CCC(c3noc4cc(F)ccc34)CC1)CCCC2 [Risperidone, reference compound] : what is it?
### Response 2.8 mg/kg

### Prompt Would you mind telling me what ED50 value was observed for COc1c(C(=O)N[C@@H]2C[C@H]3CC[C@@H](C2)N3Cc2ccc(Cl)cc2)sc2ncccc12 [Example 8, hydrochloride] ?
### Response 1.3 mg/kg

### Prompt Consider the molecule shown here: COc1c(C(=O)N[C@@H]2C[C@H]3CC[C@@H](C2)N3Cc2ccsc2)sc2ncccc12 [Example 12, hydrochloride] What is its recorded ED50?
### Response 1.25 mg/kg

### Prompt Would you mind telling me what ED50 value was observed for COc1c(C(=O)N[C@@H]2C[C@H]3CC[C@@H](C2)N3Cc2ccccc2)oc2cccnc12 [Example 4, dihydrochloride] ?
### Response 0.98 mg/kg

### Prompt Looking for the measured ED50 of `COc1c(C(=O)N[C@@H]2C[C@H]3CC[C@@H](C2)N3CC2CCCCC2)sc2ncccc12` , can you help?
### Response 5 mg/kg

### Prompt Field request: ED50 | item: CSc1c(C(=O)N[C@@H]2C[C@H]3CC[C@@H](C2)N3Cc2ccccc2)sc2ncccc12 [Example 2, hydrochloride]
### Response 0.56 mg/kg

### Prompt Name the recorded ED50 for COc1c(C(=O)N[C@@H]2C[C@H]3CC[C@@H](C2)N3Cc2ccc(F)cc2)sc2ncccc12 [Example 11, hydrochloride] .
### Response 0.31 mg/kg

---

ED50: recorded values
test system: methylphenidate-induced behavior; assay: Antagonism of methylphenidate-induced behavior in rats (chewing inhibition, normalization); format: in vivo, rat; settings: Rattus norvegicus, po, read-out: Chewing inhibition ED50
Counter-ions that a name gives are not always drawn.
The reply should read as a number followed by its unit.

Use the examples below as a reference point.
[[record]]
compound = "CSc1c(C(=O)N[C@@H]2C[C@H]3CC[C@@H](C2)N3Cc2ccc(F)cc2)sc2nccnc12 [Example 32, hydrochloride]"
attribute_measured = "ED50"
recorded_value = "0.08 mg/kg"

[[record]]
compound = "CSc1c(C(=O)N[C@@H]2C[C@H]3CC[C@@H](C2)N3Cc2ccc(Cl)cc2)sc2nccnc12 [Example 31, hydrochloride]"
attribute_measured = "ED50"
recorded_value = "0.31 mg/kg"

[[record]]
compound = "COc1c(C(=O)N[C@@H]2C[C@H]3CC[C@@H](C2)N3Cc2ccccc2)sc2nccnc12 [Example 27, hydrochloride]"
attribute_measured = "ED50"
recorded_value = "0.27 mg/kg"


### Prompt Need ED50, item COc1c(C(=O)N[C@@H]2C[C@H]3CC[C@@H](C2)N3Cc2ccc(F)cc2)sc2nccnc12 [Example 29, hydrochloride]
### Response 0.08 mg/kg

---

target: D2 type central dopaminergic receptor (Homo sapiens); test: biochemical
Sequence (P14416 whole entry): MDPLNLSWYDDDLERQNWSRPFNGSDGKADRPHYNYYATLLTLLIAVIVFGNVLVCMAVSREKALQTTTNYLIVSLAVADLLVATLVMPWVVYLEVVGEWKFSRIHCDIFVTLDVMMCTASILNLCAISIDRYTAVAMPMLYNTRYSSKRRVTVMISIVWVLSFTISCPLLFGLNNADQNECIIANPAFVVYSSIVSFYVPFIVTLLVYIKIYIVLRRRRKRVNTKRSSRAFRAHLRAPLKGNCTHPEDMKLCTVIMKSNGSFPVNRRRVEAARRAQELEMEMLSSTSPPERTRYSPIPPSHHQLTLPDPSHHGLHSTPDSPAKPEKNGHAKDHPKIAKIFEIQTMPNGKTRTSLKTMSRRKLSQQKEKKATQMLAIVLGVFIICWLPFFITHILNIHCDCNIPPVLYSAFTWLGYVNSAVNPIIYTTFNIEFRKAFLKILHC
Counter-ions that a name gives are not always drawn.
Ki reference
Write it as a number; the unit nM goes unstated.

[[record]]
molecule = "CSc1c(C(=O)N[C@@H]2C[C@H]3CC[C@@H](C2)N3Cc2ccccc2)sc2ncccc12 [Example 2, hydrochloride]"
result_unit = "nM"
recorded_value = 0.447

[[record]]
molecule = "COc1c(C(=O)N[C@@H]2C[C@H]3CC[C@@H](C2)N3Cc2ccccc2)oc2cccnc12 [Example 4, dihydrochloride]"
result_unit = "nM"
recorded_value = 2.04

[[record]]
molecule = "CSc1c(C(=O)N[C@@H]2C[C@H]3CC[C@@H](C2)N3Cc2ccc(Cl)cc2)sc2nccnc12 [Example 31, hydrochloride]"
result_unit = "nM"
recorded_value = 2.04

[[record]]
molecule = "COc1c(C(=O)N[C@@H]2C[C@H]3CC[C@@H](C2)N3Cc2ccc(F)cc2)sc2ncccc12 [Example 11, hydrochloride]"
result_unit = "nM"
recorded_value = 0.776

[[record]]
molecule = "COc1c(C(=O)N[C@@H]2C[C@H]3CC[C@@H](C2)N3Cc2ccc(Cl)cc2)sc2ncccc12 [Example 8, hydrochloride]"
result_unit = "nM"
recorded_value = 1.74


### Prompt Which Ki value is on record for COc1c(C(=O)N[C@@H]2C[C@H]3CC[C@@H](C2)N3Cc2ccccc2)sc2nccnc12 [Example 27, hydrochloride] ?
### Response 0.437

### Prompt Would you kindly share the measured Ki for `COc1c(C(=O)N[C@@H]2C[C@H]3CC[C@@H](C2)N3CC2CCCCC2)sc2ncccc12` ?
### Response 2.57

---

test: Cataleptic activity in rats, compound alone without methylphenidate; conditions: rat, in vivo, ip
Structures can show the parent of a compound that is named as a salt.
ATTRIBUTE MEASURED: ED50

Below, each entry is followed by its recorded ED50 result.
[[record]]
molecule = "COc1c(C(=O)N[C@@H]2C[C@H]3CC[C@@H](C2)N3Cc2ccc(Cl)cc2)sc2ncccc12 [Example 8, hydrochloride]"
recorded_value = "> 40 mg/kg"

[[record]]
molecule = "CSc1c(C(=O)N[C@@H]2C[C@H]3CC[C@@H](C2)N3Cc2ccccc2)sc2ncccc12 [Example 2, hydrochloride]"
recorded_value = "1.8 mg/kg"


### Prompt Can you look up the measured ED50 of CCN1CCCC1CNC(=O)c1cc(S(N)(=O)=O)ccc1OC (centres unmarked) [Sulpiride, reference compound] for me?
### Response > 160 mg/kg

### Prompt Name the reported ED50 value associated with the molecule O=C(CCCN1CCC(O)(c2ccc(Cl)cc2)CC1)c1ccc(F)cc1 [Haloperidol, reference compound]
### Response 0.32 mg/kg

### Prompt Fill in the blank: the reported ED50 of COc1c(C(=O)N[C@@H]2C[C@H]3CC[C@@H](C2)N3Cc2ccc(F)cc2)sc2ncccc12 [Example 11, hydrochloride] is ____.
### Response > 40 mg/kg

### Prompt Name the recorded ED50 for COc1c(C(=O)N[C@@H]2C[C@H]3CC[C@@H](C2)N3Cc2ccsc2)sc2ncccc12 [Example 12, hydrochloride] .
### Response > 40 mg/kg

### Prompt What value of ED50 has been reported for the following molecule? COc1c(C(=O)N[C@@H]2C[C@H]3CC[C@@H](C2)N3Cc2ccccc2)oc2cccnc12 [Example 4, dihydrochloride]
### Response > 40 mg/kg

### Prompt What measured ED50 goes with `COc1c(C(=O)N[C@@H]2C[C@H]3CC[C@@H](C2)N3CC2CCCCC2)sc2ncccc12` ?
### Response > 40 mg/kg

---

Measured ED50 accompanies every entry in the list below.
experiment: Cataleptic activity in rats, compound alone without methylphenidate; conditions: rat, in vivo, po
Counter-ions that a name gives are not always drawn.
Give your result in mg/kg as a bare value.

[[record]]
compound = "CSc1c(C(=O)N[C@@H]2C[C@H]3CC[C@@H](C2)N3Cc2ccc(F)cc2)sc2nccnc12 [Example 32, hydrochloride]"
recorded_value = 1.25

[[record]]
compound = "COc1c(C(=O)N[C@@H]2C[C@H]3CC[C@@H](C2)N3Cc2ccc(F)cc2)sc2nccnc12 [Example 29, hydrochloride]"
recorded_value = 5

[[record]]
compound = "CSc1c(C(=O)N[C@@H]2C[C@H]3CC[C@@H](C2)N3Cc2ccc(Cl)cc2)sc2nccnc12 [Example 31, hydrochloride]"
recorded_value = 1.25


For the next question, use this compound.
### Prompt So what's the measured ED50 for this one? COc1c(C(=O)N[C@@H]2C[C@H]3CC[C@@H](C2)N3Cc2ccccc2)sc2nccnc12 [Example 27, hydrochloride]
### Response 9.5

---

biological target: D2 type central dopaminergic receptor (Homo sapiens); assay: biochemical
Counter-ions that a name gives are not always drawn.
Here, each record is paired with measured Ki data.
Numeric answer only, unit nM assumed.

Example results:
[[record]]
compound = "COc1c(C(=O)N[C@@H]2C[C@H]3CC[C@@H](C2)N3Cc2ccsc2)sc2ncccc12 [Example 12, hydrochloride]"
attribute_measured = "Ki"
recorded_value = 2.57

[[record]]
compound = "CSc1c(C(=O)N[C@@H]2C[C@H]3CC[C@@H](C2)N3Cc2ccc(F)cc2)sc2nccnc12 [Example 32, hydrochloride]"
attribute_measured = "Ki"
recorded_value = 0.676


Lab note: next compound to report on.
### Prompt Look at this compound and give its reported Ki. COc1c(C(=O)N[C@@H]2C[C@H]3CC[C@@H](C2)N3Cc2ccc(F)cc2)sc2nccnc12 [Example 29, hydrochloride]
### Response 0.661
